tested on: LXFL 529; experiment: NCI tumour cell line growth inhibition, 48 h
Active and inactive are the calls of the source. No stated cut-off is given here; in the data, active = GI50 up to about 1.1 µM and inactive = higher.
Consider the following compounds; for each one, report its GI50.

Sample answers from the record:
O=C(O)CCSC(=O)Nc1ccccc1Cl : > 100 µM (inactive)
c1ccc(CCCC2Sc3cccc4cccc(c34)S2)cc1 : > 100 µM (inactive)
CCOC(=O)[C@H]1Nc2ccccc2C2c3ccccc3CC21 (stereo partly specified) : 41.6 µM (inactive)
Nc1ccc2ncc(Nc3ccc(Cl)c(Cl)c3)nc2c1 : 29.6 µM (inactive)

Batch: GI50 for all items listed.
1. Clc1ccc(C(c2ccc(Cl)cc2)c2ccccn2)cc1
2. CC1C[C@@H]2C(=O)NC(=O)[C@@H]2c2c1c1ccccc1n2C (stereo partly specified)
3. CC1OC(n2cc(I)c(=O)[nH]c2=O)C=CC1=O (stereo unspecified)
4. COc1ccc(C2=NN(c3ccccc3)C[N+](c3ccc(OC)cc3)=N2)cc1
5. Cc1c(C(=O)CC(=O)C(=O)Nc2ccccc2C(F)(F)F)[n+]([O-])c2ccccc2[n+]1[O-]
6. CC(C)N(C(=O)C12C3C4C1C1C2C3C41C(O)C(C)(C)C)C(C)C (stereo unspecified)
7. CC(=O)c1ccc(NC(=O)COC(=O)c2cccc3c(=O)c4ccccc4[nH]c23)cc1

["17.7 µM (inactive)", "> 100 µM (inactive)", "10.8 µM (inactive)", "17.2 µM (inactive)", "20.8 µM (inactive)", "> 50 µM (inactive)", "21.9 µM (inactive)"]

* * *

Consider the following compounds; for each one, report its GI50.
system: T47D; test: NCI tumour cell line growth inhibition, 48 h
The source made the active and inactive calls. Cut-off read from the data, not from the text of the source: active = GI50 up to about 1.1 µM and inactive = higher.

Cc1cc([C@H](C#N)c2nc3ccccc3s2)nc(Cl)n1 : 2.92 µM (inactive)
O=C1Oc2ccccc2C(=O)/C1=C/N1C(=O)CNC1=S : > 100 µM (inactive)
FC(F)(Sc1ccccc1)c1nc2ccccc2o1 : > 100 µM (inactive)
O=c1c(Cl)nsnc1Cl : 3.08 µM (inactive)
CCCC(=O)C1=C(O)C(Cc2c(O)c(C)c(O)c(C(=O)CCC)c2O)=C(O)C(C)(C)C1=O : 49.2 µM (inactive)
CSc1c(C#N)c(N)n(-c2ccc(Cl)cc2)c(=O)c1C#N : > 100 µM (inactive)

Batch: GI50 for all items listed.
1. CCOC(=O)[C@H]1C[C@]23CN(C(=O)OC(C)(C)C)CC[C@H]2CCC2(SCCCS2)[C@@H]3N1C
2. O=C1C2=Cc3ccccc3OC2(O)Oc2cc(O)cc(O)c21 (stereo unspecified)
3. C[Si](C)(C)C#Cc1cc(-c2nc3ccccc3s2)ccc1N
4. NC(=S)N/N=C1\CCCC1C(O)(C(F)(F)Cl)C(F)(F)Cl (stereo unspecified)
5. O=[N+]([O-])c1ccc(-c2nc3cc([N+](=O)[O-])ccc3[nH]2)cc1

25.8 µM (inactive)
> 100 µM (inactive)
18.7 µM (inactive)
> 10 µM (inactive)
15.5 µM (inactive)

* * *

Consider the following compounds; for each one, report its GI50.
test system: OVCAR-3; assay: NCI tumour cell line growth inhibition, 48 h
Activity calls are given as the source filed them. Rule as the data show it: active = GI50 up to about 1.1 µM and inactive = higher.

Sample answers from the record:
CC1C[C@@H]2C(=O)NC(=O)[C@@H]2c2c1c1ccccc1n2C (stereo not given in full) : > 100 µM (inactive)
O=C1NC(Nc2cccc(Cl)c2)=N/C1=C\c1ccc(Cl)c(Cl)c1 : 5.14 µM (inactive)
COc1ccc(/N=N/c2c(C)c(C#N)c(=S)n(C3OC(CO)C(O)C(O)C3O)c2C)cc1 (stereo not given) : 34.4 µM (inactive)
C[C@]12CC[C@@H]3c4ccc(O)cc4CC[C@H]3[C@@H]1C/C(=C\c1ccncc1)C2=O : 14.8 µM (inactive)
O=NN1CCN=C1c1ccc([N+](=O)[O-])cc1 : > 100 µM (inactive)
COc1ccc(NC(=O)N(C)CC2(O)CCC(C(C)(C)C)CC2)cc1 (stereo not given) : 23 µM (inactive)
O=C(/C=C/C=C/c1ccccc1)CCc1ccccc1 : > 100 µM (inactive)
CCOC(OCC)N1C(=O)C2(C(OCC)OCC)CC3C(OC(=O)N3N)c3cccc1c32 (stereo not given) : > 100 µM (inactive)

Batch: GI50 for all items listed.
1. O=C(Nc1ccc2cc3ccccc3cc2c1)c1cc2c(cc1Cl)Sc1nccn1S2(=O)=O
2. COP(=O)(OC)c1ccc(NCc2cc(O)ccc2O)cc1

> 100 µM (inactive)
6.34 µM (inactive)

* * *

Consider the following molecules; for each one, report its GI50.
system: MCF7; assay: NCI tumour cell line growth inhibition, 48 h
Active and inactive are the calls of the source. Cut-off read from the data, not from the text of the source: active = GI50 up to about 1.1 µM and inactive = higher.

Sample answers from the record:
C(=N\N=C1NCCCN1)/c1ccc2ccccc2c1 : 3.4 µM (inactive)
COC(=O)C1C2C=CC(C2)N1S(=O)(=O)c1ccccc1 (stereo unspecified) : > 100 µM (inactive)
COc1ccc(/C=C2/S/C(=N\c3ccccc3)N(NC(=O)Cc3ccccc3)C2=O)c(OC)c1 : > 100 µM (inactive)
COC(C(O)CO)C(O)C(O)C(=O)NNc1ccccc1 (stereo unspecified) : 39.2 µM (inactive)
CC12CP(=O)(c3ccccc3)CC1c1ccccc1C2c1ccccc1 (stereo unspecified) : > 100 µM (inactive)

Batch: GI50 for all items listed.
1. O=C1NC(Nc2cccc(Cl)c2)=N/C1=C\c1ccc(Cl)c(Cl)c1
2. COc1ccc(Cn2c(=O)c(OS(=O)(=O)C(F)(F)F)c(C)c3cc4ccccc4cc32)cc1
3. Cc1cc([C@H](C#N)c2nc3ccccc3s2)nc(Cl)n1
4. C#CCOC(=O)c1ccccc1OC(C)=O
5. c1ccc(C(NC2=NCCO2)C2CC2)cc1 (stereo unspecified)
6. Cn1c(CCC2(C)Cc3ccccc3C(=O)O2)cc2ccccc2c1=O (stereo unspecified)

3.01 µM (inactive)
> 100 µM (inactive)
4.41 µM (inactive)
> 100 µM (inactive)
> 100 µM (inactive)
24.2 µM (inactive)

* * *

test system: ACHN; assay: NCI tumour cell line growth inhibition, 48 h
Active and inactive are the calls of the source. Rule as the data show it: active = GI50 up to about 1.1 µM and inactive = higher.
Answer with one of the outcomes given here: class 1 (active), class 0 (inactive)

COC(=O)C1=CC2OC13CC1CCC3(C2=O)C1(C)C (configuration not stated) : class 0

Outcome logged for "CCOC(=O)c1ccc(C(=O)/C(C(C)=O)=C2\CCCN2C)n1C" in this assay:
class 0

Outcome logged for "CCCCCCCCCCCCCC(=O)CC(=O)c1c(O)cccc1O" in this assay:
class 0

Outcome logged for O=C1C2=Cc3ccccc3OC2(O)Oc2cc(O)cc(O)c21 (configuration not stated) in this assay:
class 0

Outcome logged for COCP1(=S)OC(C)CCN1C(C)C (configuration not stated) in this assay:
class 0

Outcome logged for "O=C1C(=C2SC(c3ccccc3)(c3ccccc3)c3ccccc32)C(=O)c2ccccc21" in this assay:
class 0

Outcome logged for "CN(C(=O)Cc1ccc(Cl)c(Cl)c1)[C@@H]1CCCC[C@H]1[N+]1(C)CC=CC1" in this assay:
class 0

Outcome logged for "O=c1c2cc(Br)cc(Br)c2[nH]c(=S)n1-c1ccc(/N=N/c2ccc(O)c3cccnc23)cc1" in this assay:
class 0

Outcome logged for CN(C(=O)C12C3C4C1C1C4(C(=O)C45C6C7C4C4C5C6C74C)C3C12C)C(C)(C)C (configuration not stated) in this assay:
class 0

* * *

tested on: A498; assay: NCI tumour cell line growth inhibition, 48 h
Activity calls are given as the source filed them. Rule as the data show it: active = GI50 up to about 1.1 µM and inactive = higher.
measured.parameter: GI50

Sample answers from the record:
O=C(Cn1cc(I)c(C(=O)NCC(O)CO)n1)NCC(O)CO (stereo not given) : > 100 µM (inactive)
c1ccc(CSc2ccccc2CN2CCN(Cc3ccccc3SCc3ccccc3)CCN(Cc3ccccc3SCc3ccccc3)CC2)cc1 : 2.25 µM (inactive)
CC12CCC(=O)N1[C@@H](c1ccccc1)[C@@H](c1ccccc1)O2 (stereo not given in full) : > 100 µM (inactive)
C=C1CC[C@@H]2[C@](C)(COC(=O)CCC(=O)OC)CCC[C@@]2(C)[C@@H]1CCC1=CC(=O)OC1 : > 100 µM (inactive)
COc1ccc(NC(=O)N(C)CC2(O)CCC(C(C)(C)C)CC2)cc1 (stereo not given) : 81.3 µM (inactive)

Batch: GI50 for all items listed.
1. O=C(/C=C\c1cccc2ccccc12)c1ccc(F)cc1
2. CC(=O)c1cc(CC2Cc3cc4c(cc3C2=O)CCC4)cc2c1CCC2 (stereo not given)
3. CC(C)=CC[C@H]1C[C@]2(CC=C(C)C)C(=O)[C@@](CC=C(C)C)(C(=O)C(C(=O)c3ccccc3)=C2O)C1(C)C [6-EPI-CLUSIANONE]
4. COc1ccc(C2C(=O)c3ccc(OC)cc3OC2c2cccnc2)cc1 (stereo not given)

1. 29.7 µM (inactive)
2. 84.7 µM (inactive)
3. 9.46 µM (inactive)
4. > 100 µM (inactive)

Form field GI50, entry "O=c1oc2ccccc2c2nc3ccccc3cc12" : 33 µM (inactive)
